As shown below, each of these sequences has a reported apparent Kd value.
System: MS2 coat protein
experimental-protocol: apparent Kd, MS2 coat protein; higher = weaker binding; RNA-MaP array; FMN 200 µM where present
setup-conditions: designed as: OFF switch for flavin mononucleotide; no ligand
Lab book: enter the figure in nM, no units written.

Consider the reported apparent Kd for these sequences:
UUUUUACAUGAGGAUCACCCAUGUGAGGAUAUGGAUUCGCUGGCCGUAGCCAGUGGAUCCAGAAGGCGCAUGAU	82.7
CGGGAGUCAGGAUAUACGGUCAUGUCGCCAGAUGUCAUGGUACAUGAGGAUCACCCAUGUAGAAGGGAGGAGAU	75.7
UCAGGCUUCGAGAAGGACAUGAAUCGUAGCAUUGCUACGAUCAUAGAUACAUGAGGAUCACCCAUGUAGGAUAUCGGAGUCUGC	5.8
CUGAGGUCAGGAUAUGCAUGGCGGGACUUGCGUCGUGGCGUGGAGAAGGGACAUGAGGAUCACCCAUGUGGAGA	83
UUGUUACAUGAGGAUCACCCAUGUGAGGAUAUGAGUCAGUCACGGUGACGUGGCUGACUCAGAAGGCACUAUGG	300
GUACUGUAGUGAGGAUAUACGAGAUCGAUAGAUCGGCGAUCCAUUAAUACAUGAGGAUCACCCAUGUAGAAGGCACUUCAGUAC	6.25
GAUCCUUCUGUUAGGAUAUGCUUUGGGCUUCCGCAGCAGAAGGAACAUGAGGAUCACCCAUGUCCAAUGCCGUC	56.6
AUACGCUGAGGAUAUACCAAAACAACAACCUCGUGUAUAAUACAUGAGGAUCACCCAUGUAGAAGGCAGUAAAC	58.6

Param readout = apparent Kd; param system = MS2 coat protein; param query = `UUUUUGUCAGGAUAUGACUAGAUGCACGUUAGUGCAUCUACUUAGAAGGGACAUGAGGAUCACCCAUGUAUUCC` ; response: value
29.8

So what apparent Kd did `GUCAGCUCGUGAGGAUAUACAACACUGCUUCGGCAGUGUAUUAAGAUCACAUGAGGAUCACCCAUGUAGAAGGCACGAGUUGAU` get with MS2 coat protein?
13.9

For the record `GGAUAGGACAGAGGAUAUACGUGCUAGAGAUACUAGCAAAAUUUCCUCACAUGAGGAUCACCCAUGUAGAAGGCCGUCCUAUCG` , what value of apparent Kd is listed for MS2 coat protein?
6.02

Enter reported apparent Kd observed with MS2 coat protein for `ACGUCUUAGUAGAAGGGACAUCGGCUGGUAAGCAUCAUCUCCUUCUCACAUGAGGAUCACCCAUGUCAGGAUAUACUAAGAGUC`
12.3

Can you look up apparent Kd on MS2 coat protein for `UGUCGGAGCAGAGGAUAUUACAUGAGGAUCACCCAUGUAUGAAUCAAUAGCUGGAAACAGCAAUGUAAGAAGGCUGCUCCGACA` ?
7.86

What apparent Kd appears in the records for this sequence with MS2 coat protein? `UUUCAGCAAGGAUAUACGGGCUGUGCUUUUCAUUUCUUACAACAUGAGGAUCACCCAUGUAGAAGGUGCAUCUU`
72.5

# returns recorded apparent Kd (system: MS2 coat protein) for `ACAUGAGGAUCACCCAUGUAUUACAUGGUUAAGUUUAUUAACAGAAGGCGAAAUUACCACUUUUUCGAGGAUAUGUUUUCUAUA`
45.1

----------
Test system: MS2 coat protein
experimental-protocol: apparent Kd, MS2 coat protein; higher = weaker binding; RNA-MaP array; FMN 200 µM where present
setup-conditions: ligand present: flavin mononucleotide; designed as: OFF switch for flavin mononucleotide
assay-endpoint: apparent Kd
The answer should read as a number with its unit following.

Look over these answered cases.
UGAUAGGACAGAGGAUAUACCGAUAGGAGAUACUAUCGACUAUUCCUCACAUGAGGAUCACCCAUGUAGAAGGCUGUCCUAUCU	60.2 nM
UGCUGGCGAGGAUAUGCUCGGGAUGCUAGUCGCGCGGUUGCACAUGAGGAUCACCCAUGUAGAAGGUGUCUGUG	169 nM
AUACCACGAGGAUAUCGUCUAUUUCACAUGAGGAUCACCCAUGUUAUCUUUGUUUUGUUUCGAGAAGGCGUGUUUU	20.9 nM
ACCGAACAUGAGGAUCACCCAUGUGAGGAUAUAGACGUGAAUUAAACACGUAACAAAACUAGAAGGCACUGGGC	14.9 nM
CUGAGCUCAGGAUAUACAUGAGGAUCACCCAUGUGUUCCUGCGACGUUAGUUGCACAUGUAGAAGGGAGUUCGG	57.8 nM

Moving on to the next sequence.
// apparent Kd lookup, key: `CCAUCAGCGGGCGUAUCGGUUGGACAUGAGGAUCACCCAUGUAGAAGGACAGGAGUAUUUCGGCUGUAGGAUAUACAUUUGGUG`
52.7 nM

----------
# apparent Kd per record follows
Test system: MS2 coat protein
experimental-protocol: apparent Kd, MS2 coat protein; higher = weaker binding; RNA-MaP array; FMN 200 µM where present
setup-conditions: ligand present: flavin mononucleotide; designed as: OFF switch for flavin mononucleotide
Return type: number; implicit unit nM.

Please review the following examples before continuing.
GUAGUGUAUGUAGGAUAUGUGAAGCAAAGCUUCACAGAAGGACAUGAGGAUCACCCAUGUAUUGCAGUCAGCAAUCUGACUGCU	145
UAUGUGUCAGGAUAUUGUUAGUUUAGUUGUUUGUAUUAGUUCGAGAAGGGACAUGAGGAUCACCCAUGUUGUUU	28.6

Entry `GCGUUACAUGAGGAUCACCCAUGUGAGGAUAUGGUGCGGUACUGUCCUGUCGCGUACUCCAGAAGGCACGGGUG` : reported apparent Kd = ?
85.3

Param item = `AAUAUAAUAAGAGCUGGAAAUAAAACAUGAGGAUCACCCAUGUAGGAUAUCAGCACGAUAAGUGCUGAGAAGGACAACCAGCUC` ; retrieve measured apparent Kd.
15.1

Value lookup for apparent Kd; key = `UUAAUUUUAUGAUAUUAUGACAUUAGAAGGCUGUACAUGUUGAUACAUGAGGAUCACCCAUGUAUAGAGGAUAUAGACAAUUUU`
63.9

So what's the measured apparent Kd for this one? `AAGUCGCGGUCAGGAUAUCAGAAACAAAUUGACUGAGAAGGGAUGGCACAUGAGGAUCACCCAUGUCGUCGUCGCAGUGGGUGA`
155

Requested field: apparent Kd. Item: `AUAAACCAAGGAUAUACAUGAGGAUCACCCAUGUUCCCUUGAACCCAGGGUAUGCAAUGUAGAAGGUGGGAAAC`
29.5

For the sequence shown here, `AAGAAGUCAGGAUAUGCAUGGCGGGACUUGCGUCGUGGCGUGCAGAAGGGACAUGAGGAUCACCCAUGUGGAGC` , give the reported apparent Kd.
161

----------
Tested on: MS2 coat protein
experimental-protocol: apparent Kd, MS2 coat protein; higher = weaker binding; RNA-MaP array
setup-conditions: designed as: ON switch for tryptophan; no ligand
Examples of sequences with documented apparent Kd follow.
Please state the figure in nM; there is no need to write the unit.

CGCCCAGUUACGGCCGCCACUUCGAUGGCAAAUGUCGAGCCUCCACAUGAGGAUCACCCAUGUCGAAGGACCGGGUACUGCUUGC	31.9
UUUUACAUGAGGAUCACCCAUGUGCGGCGCCGAGGACCGGUACGGCCGCCACUCGCAUGGGCAUGCCGCGAUAUCAUUCCUGAAC	96.2
UCAUUUUUCACGGCCGCCACUUCAAGGUCCUGAGGCUGGGCAACACAUGAGGAUCACCCAUGUCGAAGGACCGGGUGAAGCUACC	114
UCAUACAUGAGGAUCACCCAUGUUCGUGGGCGAGGACCGGUACGGCCGCCACUCGUACUAACGGUUUCUUAAACUUCCUUUCGAG	25.6
CGCUACAUGAGGAUCACCCAUGUUACUCCGCGAGGACCGGUACGGCCGCCACUCGGCAGUUUGCGCCGCCGGAGGCACUCUUCAG	27

Field: next sequence
// returns reported apparent Kd for input `GAUAACAUGAGGAUCACCCAUGUGGCGUCGCGAGGACCGGUACGGCCGCCACUCGGCAGUUCAACUCGAAUAUAGUGAUCGAAGU`
138

----------
Test system: MS2 coat protein
experimental-protocol: apparent Kd, MS2 coat protein; higher = weaker binding; RNA-MaP array; FMN 200 µM where present
setup-conditions: ligand present: flavin mononucleotide; designed as: OFF switch for flavin mononucleotide
// apparent Kd lookup, one value per entry
Expressed in nM, but write only the number.

GCACGGUUGCUAGGAUAUCCUUGCGAUUAGCAAGGAGAAGGAGCACAUGAGGAUCACCCAUGUACCUCAAUAAUCCAUCCGUGC	14.2
UCUGCCGCCGUGAGGAUAUGCCCAAAGAAAAGCGGGCAGAAGGCACAUGAGGAUCACCCAUGUCCCGCGGUUUU	38.4
CUUCAAGAUGUGAGGAUAUCGCCGAUGAGGAUAGUUGAGAAGGUACAUGAGGAUCACCCAUGUAGGCUGGGUUU	42.1
GGUACUCAAAGAGUACCAAUACGUACAUGAGGAUCACCCAUGUAGGAUAUGCUACUCAAAGAGUAGCAGAAGGACAUGUGCCUA	31
UUUACGAAAGUCGAACGAUGUAGCAGAAGGACAUGAGGAUCACCCAUGUCAGCUGUAACAGCCAUGUAGGAUAUGCUACAUAAA	5.92
GGAAAGUAAGGAUAUGCGAACAAACAAACAAACAAAAGGGAACAUGAGGAUCACCCAUGUAGAAGGUGCAAACA	35.9
GGAUAGGACAGAGGAUAUACAGAUAGGAUCUACUAUCAAACAGUCCUAACAUGAGGAUCACCCAUGUAGAAGGCUGUCCUAUCG	80.3
UCACGGGUUUGAGGAUAUAUAUUUAUUAUUUUAAUAGAAGGCAAAGAGAUAGUUUUUUCACUAUACAUGAGGAUCACCCAUGUU	36
GUACAGUAGUGAGGAUAUACGAGAUCGAUAGAUCGGCGAUCCAUAUAUACAUGAGGAUCACCCAUGUAGAAGGCACUUCUGUAC	104
AAUCCACAUGAGGAUCACCCAUGUCAGGAUAUCGCGCGCGCGUUUUCGGUCUCGCGCGCGAGAAGGGACGGCUG	48.2

Endpoint output: apparent Kd of `AUAAUGAGAGGAUAUACAUGAGGAUCACCCAUGUAAUUAACACGGCGAGCUCCAAUACGUAGAAGGCUCAUUUA` . Value?
35

Any idea what apparent Kd was measured for `GGAUUACAUGAGGAUCACCCAUGUGAGGAUAUCGAUGUCCUGUGUGGAGUGCGGGACUCGAGAAGGCACUUGGA` ?
219

Entry under review: `AAGCUGGUAGGAUAUGCUAGGGCGACUAAUGCGCCGAUAGUACAUGAGGAUCACCCAUGUAGAAGGGCCAGAAA` . Reported apparent Kd?
18.4

I am curious: what apparent Kd value has been reported for `UGUCGGAGCAGAGGAUAUUACAUGAGGAUCACCCAUGUAUGAACCAAUAGCUGGAUACAGCAAUGUAAGAAGGCUGCUCCGACA` ?
89.2

Fill blank: measured apparent Kd of the sequence `UGUCGGAGCAGAGGAUAUUACAUGAGGAUCACCCAUGUAUGAACCAAUAGCUGGAAACAGCAGUGUAAGAAGGCUGCUCCGACA` is ____.
143
